Data origin: ChEMBL document CHEMBL1961873

- Test system: Proto-oncogene tyrosine-protein kinase receptor Ret (Homo sapiens), P07949 [V804L]
- Sequence (P07949 whole entry V804L): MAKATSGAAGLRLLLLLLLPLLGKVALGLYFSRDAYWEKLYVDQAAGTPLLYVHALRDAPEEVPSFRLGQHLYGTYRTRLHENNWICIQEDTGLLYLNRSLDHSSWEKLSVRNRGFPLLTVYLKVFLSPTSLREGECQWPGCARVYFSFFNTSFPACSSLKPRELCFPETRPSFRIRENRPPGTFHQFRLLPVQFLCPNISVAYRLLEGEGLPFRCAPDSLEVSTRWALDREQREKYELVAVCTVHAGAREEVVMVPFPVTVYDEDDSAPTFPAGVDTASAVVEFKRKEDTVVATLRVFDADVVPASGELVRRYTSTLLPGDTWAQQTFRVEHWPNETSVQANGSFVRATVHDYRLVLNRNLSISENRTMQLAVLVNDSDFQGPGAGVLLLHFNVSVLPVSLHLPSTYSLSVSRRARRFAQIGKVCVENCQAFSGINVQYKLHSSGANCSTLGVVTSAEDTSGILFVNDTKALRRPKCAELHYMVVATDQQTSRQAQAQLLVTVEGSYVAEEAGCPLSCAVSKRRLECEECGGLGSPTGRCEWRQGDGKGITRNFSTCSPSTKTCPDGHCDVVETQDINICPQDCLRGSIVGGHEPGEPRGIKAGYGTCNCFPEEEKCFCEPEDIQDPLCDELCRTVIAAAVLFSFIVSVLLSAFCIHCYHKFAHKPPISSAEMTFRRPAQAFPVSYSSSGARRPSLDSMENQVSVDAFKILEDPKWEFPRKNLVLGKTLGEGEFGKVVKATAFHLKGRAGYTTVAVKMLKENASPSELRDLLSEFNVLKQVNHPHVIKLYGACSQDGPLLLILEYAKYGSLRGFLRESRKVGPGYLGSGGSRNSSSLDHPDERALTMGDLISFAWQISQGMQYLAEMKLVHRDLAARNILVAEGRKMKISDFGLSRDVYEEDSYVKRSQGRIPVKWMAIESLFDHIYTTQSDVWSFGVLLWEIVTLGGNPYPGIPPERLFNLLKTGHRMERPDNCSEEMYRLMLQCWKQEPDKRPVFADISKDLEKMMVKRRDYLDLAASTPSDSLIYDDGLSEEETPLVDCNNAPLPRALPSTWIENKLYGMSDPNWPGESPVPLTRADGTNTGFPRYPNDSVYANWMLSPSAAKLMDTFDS
- condition.parameters: at 0.1 µM

- structure.as.smiles: "CCCN1CCC(c2ccc(Nc3nc(Nc4cc(F)ccc4C(N)=O)c4cc[nH]c4n3)c(OC)c2)CC1"
  inhibition: "9.84%"
- structure.as.smiles: "CN1CCC(n2cnc(-c3ccc(F)cc3)c2-c2ccnc(Nc3ccccc3)n2)CC1"
  inhibition: "4.17%"
- structure.as.smiles: "Nc1ncc(-c2cccc(S(N)(=O)=O)c2)c2scc(-c3ccc(F)c(Cl)c3)c12"
  inhibition: "5.58%"
- structure.as.smiles: "Nc1nc(-c2cccc(Cl)c2)c(-c2ccc3ncccc3n2)s1"
  inhibition: "8.87%"
- structure.as.smiles: "CNC(=O)c1cc(-c2ccc(F)cc2)cc(-c2ccc(S(=O)(=O)N3CCCC3)cc2)c1N"
  inhibition: "2.49%"
- structure.as.smiles: "Fc1cccc(COc2ccc(Nc3ncnc4sc(-c5ccco5)cc34)cc2Cl)c1"
  inhibition: "5.96%"
- structure.as.smiles: "CCn1c(-c2nonc2N)nc2c(C#CC(C)(C)O)ncc(OC3CCNCC3)c21"
  inhibition: "1.1%"
- structure.as.smiles: "Nc1nc(-c2ccc(F)cc2)c(-c2ccc3ncccc3n2)s1"
  inhibition: "4.68%"
- structure.as.smiles: "CCn1cc(-c2ccnc3[nH]ccc23)c(-c2cccc(NC(=O)Nc3ccc(OCc4ccccc4)cc3)c2)n1"
  inhibition: "0.99%"
- structure.as.smiles: "COc1cc2c(cc1Nc1nc(Nc3ccsc3C(N)=O)c3cc[nH]c3n1)N(C(=O)CN(C)C)CCC2(C)C"
  inhibition: "12.9%"
- structure.as.smiles: "NS(=O)(=O)c1ccc(Nc2ncc(-c3ccccc3)o2)cc1"
  inhibition: "3.57%"
- structure.as.smiles: "CCn1c(-c2nonc2N)nc2cnc(Oc3cccc(NC(=O)c4ccc(N(C)C)cc4)c3)cc21"
  inhibition: "3.42%"
- structure.as.smiles: "[O-][S+]1CCN(Cc2ccc(-c3ccc4ncnc(Nc5ccc(OCc6cccc(F)c6)c(Cl)c5)c4c3)o2)CC1"
  inhibition: "7.71%"
- structure.as.smiles: "N#Cc1c(NC(=O)CN2CCOCC2)sc2c1CCCC2"
  inhibition: "1.54%"
- structure.as.smiles: "NS(=O)(=O)c1ccc(N/N=C2\\C(=O)Nc3ccc4ncccc4c32)cc1"
  inhibition: "57.7%"
- structure.as.smiles: "CS(=O)(=O)CCNCc1coc(-c2ccc3ncnc(Nc4ccc(OCc5ccccc5)cc4)c3c2)c1"
  inhibition: "3.88%"
- structure.as.smiles: "CCOc1ccc2c(-c3ccnc(Nc4cccc(C(F)(F)F)c4)n3)cnn2n1"
  inhibition: "5.38%"
- structure.as.smiles: "COc1cccc(-n2ncc3c(N/N=C/c4ccc(F)cc4)ncnc32)c1"
  inhibition: "2.47%"
- structure.as.smiles: "FC(F)(F)c1cccc(-c2nn3ncccc3c2-c2ccnc(Nc3ccc4c(c3)OCCO4)n2)c1"
  inhibition: "4.11%"
- structure.as.smiles: "CNC(=O)c1cccc(C#Cc2cncnc2Nc2ccc(OCc3cccc(F)c3)c(Cl)c2)c1"
  inhibition: "2.44%"
- structure.as.smiles: "CC(C)COC(=O)c1ccc2c(c1)/C(=C/Nc1ccc(S(N)(=O)=O)cc1)C(=O)N2"
  inhibition: "54.5%"

----------
inhibition: recorded values
- target.of.assay: Muscle, skeletal receptor tyrosine-protein kinase (Homo sapiens);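 also: reported value is the mean percent inhibition of MuSK kinase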
- Sequence (whole entry): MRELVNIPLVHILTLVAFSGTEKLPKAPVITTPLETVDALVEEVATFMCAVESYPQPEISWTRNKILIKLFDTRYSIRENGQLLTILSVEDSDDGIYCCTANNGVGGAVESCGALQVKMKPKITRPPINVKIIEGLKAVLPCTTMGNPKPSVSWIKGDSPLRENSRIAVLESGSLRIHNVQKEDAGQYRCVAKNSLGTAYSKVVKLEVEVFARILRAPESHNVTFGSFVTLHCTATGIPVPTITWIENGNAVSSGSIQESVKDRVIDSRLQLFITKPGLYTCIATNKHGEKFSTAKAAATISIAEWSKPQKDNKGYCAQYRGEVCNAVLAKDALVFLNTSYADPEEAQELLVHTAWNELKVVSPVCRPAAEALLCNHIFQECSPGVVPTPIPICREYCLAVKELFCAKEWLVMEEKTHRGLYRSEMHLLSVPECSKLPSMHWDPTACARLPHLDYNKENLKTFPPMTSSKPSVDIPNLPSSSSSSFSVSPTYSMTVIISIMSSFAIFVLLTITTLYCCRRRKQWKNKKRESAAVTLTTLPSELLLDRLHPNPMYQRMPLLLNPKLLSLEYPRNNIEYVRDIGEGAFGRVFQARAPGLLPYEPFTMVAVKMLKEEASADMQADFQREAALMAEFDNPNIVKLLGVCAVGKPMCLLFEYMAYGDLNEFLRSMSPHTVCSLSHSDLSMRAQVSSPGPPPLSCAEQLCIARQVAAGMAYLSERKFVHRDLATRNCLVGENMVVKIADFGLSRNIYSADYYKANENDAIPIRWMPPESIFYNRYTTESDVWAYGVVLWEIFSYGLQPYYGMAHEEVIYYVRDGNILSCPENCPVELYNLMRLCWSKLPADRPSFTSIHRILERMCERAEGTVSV
- condition.parameters: at 1 µM
quantity.name: inhibition

- structure.as.smiles: "COc1cccc(-c2c[nH]c3c(N/N=C/c4ccncc4)ncnc23)c1"
  experimental.result: "48.8%"
- structure.as.smiles: "COc1cc2c(cc1Nc1nc(Nc3ccsc3C(N)=O)c3cc[nH]c3n1)N(C(=O)CN(C)C)CCC2(C)C"
  experimental.result: "62.4%"
- structure.as.smiles: "CC(=O)Nc1cccc(C#Cc2cncnc2Nc2ccc(OCc3cccc(F)c3)c(Cl)c2)c1"
  experimental.result: "6.82%"
- structure.as.smiles: "Nc1nc(-c2cccc(Cl)c2)c(-c2ccc3ncccc3n2)s1"
  experimental.result: "2.14%"
- structure.as.smiles: "CCCN(CCS(C)(=O)=O)Cc1ccc(-c2ccc3ncnc(Nc4ccc(OCc5cccc(F)c5)c(Cl)c4)c3c2)o1"
  experimental.result: "2.34%"

----------
inhibition: recorded values
- target.of.assay: Non-receptor tyrosine-protein kinase TNK1 (Homo sapiens) (UniProt Q13470);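 also: values are averaged percent inhibition of TNK1, compounds from the GSK published kinase inhibitor set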
- Sequence (whole entry): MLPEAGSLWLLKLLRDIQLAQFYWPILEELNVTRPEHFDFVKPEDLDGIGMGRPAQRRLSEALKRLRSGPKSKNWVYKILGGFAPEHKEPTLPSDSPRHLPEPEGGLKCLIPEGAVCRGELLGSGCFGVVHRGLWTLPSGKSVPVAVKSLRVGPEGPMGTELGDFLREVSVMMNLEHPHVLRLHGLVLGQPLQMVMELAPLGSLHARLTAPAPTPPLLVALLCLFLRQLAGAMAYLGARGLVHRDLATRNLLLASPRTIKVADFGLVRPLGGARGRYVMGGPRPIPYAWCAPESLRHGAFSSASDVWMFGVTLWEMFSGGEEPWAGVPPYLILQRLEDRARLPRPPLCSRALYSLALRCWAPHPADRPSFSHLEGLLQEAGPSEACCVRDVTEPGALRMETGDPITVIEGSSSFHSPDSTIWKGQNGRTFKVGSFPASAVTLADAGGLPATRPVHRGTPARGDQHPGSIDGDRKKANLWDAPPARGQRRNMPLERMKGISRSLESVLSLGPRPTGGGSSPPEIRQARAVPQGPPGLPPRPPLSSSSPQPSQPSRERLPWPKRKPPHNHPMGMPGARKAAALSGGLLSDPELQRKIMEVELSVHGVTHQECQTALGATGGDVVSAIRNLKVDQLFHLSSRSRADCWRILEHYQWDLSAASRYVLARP
- condition.parameters: at 1 µM

- structure.as.smiles: "Fc1ccc(-c2nn3ncccc3c2-c2ccnc(Nc3ccc4c(c3)OCCO4)n2)cc1"
  value.unit: "%"
  inhibition: 30.4
- structure.as.smiles: "COc1cccc(-n2ncc3c(N/N=C/c4ccc(F)cc4)ncnc32)c1"
  value.unit: "%"
  inhibition: 12.4
- structure.as.smiles: "COc1ccc2[nH]c3c4[nH]c5ccc(OC)cc5c4c4c(c3c2c1)C(=O)NC4=O"
  value.unit: "%"
  inhibition: 89
- structure.as.smiles: "CC(C)COC(=O)c1ccc2c(c1)/C(=C/Nc1ccc(S(N)(=O)=O)cc1)C(=O)N2"
  value.unit: "%"
  inhibition: 5.07
- structure.as.smiles: "COc1ccc(CNC(=O)c2ccc(-c3cc(-c4nnc(C)o4)ccc3C)cc2)cc1"
  value.unit: "%"
  inhibition: 16

----------
- target.of.assay: Mitogen-activated protein kinase kinase kinase kinase 2 (Homo sapiens);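 also: reported value is a mean of MAP4K2 inhibition at 1 µM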
- Sequence (whole entry): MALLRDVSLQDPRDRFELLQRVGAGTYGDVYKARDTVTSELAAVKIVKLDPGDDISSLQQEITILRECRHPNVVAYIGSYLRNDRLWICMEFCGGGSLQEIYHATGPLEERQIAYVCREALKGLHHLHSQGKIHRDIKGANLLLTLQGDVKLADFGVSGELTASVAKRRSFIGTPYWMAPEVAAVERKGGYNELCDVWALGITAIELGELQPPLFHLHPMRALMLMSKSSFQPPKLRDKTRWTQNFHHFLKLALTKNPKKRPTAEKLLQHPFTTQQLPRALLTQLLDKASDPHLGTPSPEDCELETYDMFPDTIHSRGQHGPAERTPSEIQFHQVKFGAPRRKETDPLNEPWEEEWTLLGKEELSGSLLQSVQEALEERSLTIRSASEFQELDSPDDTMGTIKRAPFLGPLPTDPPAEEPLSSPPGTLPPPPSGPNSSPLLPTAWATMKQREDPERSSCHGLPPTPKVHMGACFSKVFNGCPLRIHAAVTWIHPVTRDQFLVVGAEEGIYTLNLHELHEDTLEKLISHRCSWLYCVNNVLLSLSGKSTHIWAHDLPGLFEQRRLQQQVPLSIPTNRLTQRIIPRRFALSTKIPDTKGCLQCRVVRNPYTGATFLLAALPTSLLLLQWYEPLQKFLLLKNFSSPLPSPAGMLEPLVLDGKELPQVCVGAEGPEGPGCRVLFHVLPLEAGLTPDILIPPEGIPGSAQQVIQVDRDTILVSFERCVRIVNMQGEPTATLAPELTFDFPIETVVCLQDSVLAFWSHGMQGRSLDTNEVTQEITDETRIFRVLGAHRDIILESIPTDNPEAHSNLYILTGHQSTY
- condition.parameters: at 1 µM
Values of inhibition greater than or equal to 10% map to yes (1); values below map to no (0).

- structure.as.smiles: "O=C(Nc1n[nH]c2cc(-c3ccc(F)cc3)ccc12)C1CC1"
  category.label: "no (0)"
- structure.as.smiles: "CCn1cc(-c2ccnc3[nH]ccc23)c(-c2cccc(NC(=O)Nc3ccc(OCc4ccccc4)cc3)c2)n1"
  category.label: "yes (1)"
- structure.as.smiles: "COc1cc(/C=N/Nc2ncnc3[nH]ncc23)ccc1O"
  category.label: "no (0)"
- structure.as.smiles: "c1ccc(COc2ccc(Nc3ncnc4ccc(-c5ccco5)cc34)cc2)cc1"
  category.label: "no (0)"
- structure.as.smiles: "CCn1c(-c2nonc2N)nc2c(C#CC(C)(C)O)nc(OC[C@H](N)c3ccccc3)cc21"
  category.label: "yes (1)"
